# assay target: Rap guanine nucleotide exchange factor 3 (Homo sapiens)
# assay comment: Confirmatory qHTS for antagonist of cAMP-regulated guanine nucleotide exchange factor 3 (EPAC1) (AID 1645880); note: nearly all actives have a fitted effect of over 55% in size
# measurement conditions: EPAC1 Rap1B-BODIPY-GDP exchange, fluorescence
Results filed as inconclusive are left out. Calls of active or inactive are those of the source. Calls come from the whole dose curve; as a rule, active = well fitted inhibition curve with a large enough effect; inconclusive = small, poorly fitted or top-dose-only effect; inactive = no such curve, though single readings can be large or run the other way.
Assign a class; possible classes are active, inactive

Look over these answered cases.
- compound: "COc1cc2cc3c4c(cc(OC)c(OC)c4c2cc1OC)CCN3C"
  answer label: "inactive"
- compound: "CC1=Nc2ccccc2/C1=C\\c1nc(-c2ccc(F)cc2)oc1O"
  answer label: "inactive"

## Task Outcome? CCN(CC)c1ccc(/C=C(\C#N)C(=O)c2ccc(Br)cc2)cc1
## Result inactive

## Task Outcome? CCN1CCN(Cc2c(O)ccc3c2O/C(=C\C=C\c2ccccc2OC)C3=O)CC1
## Result inactive

## Task Outcome? COc1ccc2[nH]cc(CCNc3ncnc4ccc(-c5ccccc5OC)cc34)c2c1
## Result inactive

## Task Outcome? COC(=O)c1c(SC)nc2ccccc2c1OCc1ccc(Cl)cc1
## Result inactive

## Task Outcome? COc1ccc(N2C(=O)[C@H]3CCC=C[C@H]3[C@@H]2c2ccccc2Br)cc1
## Result inactive

## Task Outcome? COc1cccc(CC(=NO)c2cccc(OC)c2)c1
## Result inactive

## Task Outcome? O=C(O)CCSc1nnc(COc2cccc3ccccc23)n1-c1cccc(Cl)c1
## Result inactive

## Task Outcome? Cc1cc2oc(=O)c(CC(=O)O)c(C)c2c2occ(C(C)(C)C)c12
## Result inactive

## Task Outcome? COc1cccc(-c2nc(N3CCN(c4ccccc4)CC3)c3ccccc3n2)c1O
## Result inactive

## Task Outcome? O=C(COc1ccccc1[N+](=O)[O-])Nc1cccc(C(=O)Nc2ccccc2C(=O)O)c1
## Result active

## Task Outcome? CC(=O)Nc1ccc(N=Cc2c(O)c(C(=O)Nc3ccccc3)cc3ccccc23)cc1
## Result inactive

## Task Outcome? O=C(CSc1nccn1C1CCCC1)Nc1cc(C(F)(F)F)ccc1Cl
## Result inactive

## Task Outcome? CC1=C(C(=O)OCc2ccccc2)C(c2ccc(Cl)cc2Cl)NC(=O)N1CCCCCC(=O)O (stereo unspecified)
## Result active

## Task Outcome? O=C(COc1cccc(OC(F)F)c1)Nc1ccc(SC(F)F)cc1
## Result inactive

## Task Outcome? COc1ccc(NC(=O)/C(C#N)=C\c2ccc(OCc3ccc(C(=O)O)cc3)c(OC)c2)cc1
## Result active

## Task Outcome? COc1cccc(/C(O)=C/c2nc3ccc(C(=O)NCCc4cccc(C)c4)cc3[nH]c2=O)c1
## Result inactive
